src = patent US10023519B2

molecular target: human GPR120 (Homo sapiens (Human), UniProt Q5NUL3); experiment: GPR120 pERK AlphaScreen SureFire Assay (human); conditions: CHO cells stably transfected with short form of human GPR120
Sequence (Q5NUL3 whole entry): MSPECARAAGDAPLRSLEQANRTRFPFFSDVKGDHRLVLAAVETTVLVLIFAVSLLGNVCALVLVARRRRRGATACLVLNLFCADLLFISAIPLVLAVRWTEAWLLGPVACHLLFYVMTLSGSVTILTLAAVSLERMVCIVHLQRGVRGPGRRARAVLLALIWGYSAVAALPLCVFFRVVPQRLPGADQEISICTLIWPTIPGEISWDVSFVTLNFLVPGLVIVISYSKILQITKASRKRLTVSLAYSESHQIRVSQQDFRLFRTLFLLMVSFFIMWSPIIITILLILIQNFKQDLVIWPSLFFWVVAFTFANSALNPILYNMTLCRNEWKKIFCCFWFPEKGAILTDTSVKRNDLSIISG
reported_property: EC50 (nM)

| molecule | value_measured |
| --- | --- |
| COc1cc(Cl)cc(-c2ccc([C@H]3C[C@@H](OCC(=O)O)C3)cc2)c1 [Example 6] | 880 |
| Cc1ccc(Oc2ccc(F)c(-c3ccc([C@H]4C[C@@H](OCC(=O)O)C4)cc3)c2)cn1 [Example 20] | 270 |

(1) Cc1nc(-c2ccc(F)c(-c3ccc([C@H]4C[C@@H](OCC(=O)O)C4)cc3)c2)no1 [Example 21]
(2) Cc1ccc(Oc2ccc(F)c(-c3ccc([C@H]4C[C@@H](OCC(=O)O)C4)cc3)c2)nn1 [Example 29]
(Q) For this pair, 1 and 2 , which shows a numerically higher EC50? Kindly give the label for the entry you pick.
(A) 2
(2: 5000 nM, 1: 550 nM)
